Assay: Plasma stability, murine plasma
Format: in vitro ADME, mouse
Details: mouse
READOUT_LABEL: recovery at 6 h (%)

• CCNS(=O)(=O)c1ccc(NC2C3CC4CC(C3)CC2C4)c(NCc2ccccc2)c1 (stereo not shown) [Compound 44] = 99.4
• CCNS(=O)(=O)c1ccc(NC2CCCCC2)c(N)c1 [Compound 22] = 86.2
• CCNS(=O)(=O)c1ccc(NC2CCCCC2)c(NCc2ccccc2)c1 [Compound 37] = 98.6
• CCNS(=O)(=O)c1ccc(NC2C3CC4CC(C3)CC2C4)c(NCc2ccncc2)c1 (stereo not shown) [Compound 45] = 100

---

Assay: Kinetic solubility (turbidity)
Assay type: physicochemical
Details: aqueous buffer, kinetic from dmso stock; kinetic solubility by turbidity; test range 3.125 μM to 200 μM; 10 mM PBS pH 7.4
Procedure: Unless otherwise stated, laboratory reagent grade solvents were used. Reagents were obtained from Sigma-Aldrich, Acros Organics or Fluorochem and were used without further purification. Characterization of all compounds was done with ^1H and ^13C NMR and mass spectrometry. ^1H and ^13C NMR spectra were recorded on a 400 MHz Bruker Avance III Nanobay spectrometer with Ultrashield and analyzed by use of MestReNova analytical chemistry software. […]
READOUT_LABEL: solubility

Example entries and their recorded answers appear below.
* CCNS(=O)(=O)c1ccc(NC2CCCCC2)c(NCc2ccccc2)c1 | 12.5 to 25 µM
* CCNS(=O)(=O)c1ccc(NC2CCCCC2)c(NCc2cncnc2)c1 | 100 to 200 µM
* CN1CCN(S(=O)(=O)c2ccc(NC3CCCCC3)c(N)c2)CC1 | > 200 µM
* CCNS(=O)(=O)c1ccc(NC2C3CC4CC(C3)CC2C4)c(NCc2ccncc2)c1 (stereo not shown) | 12.5 to 25 µM
* CCNS(=O)(=O)c1ccc(NC2CCCCC2)c(N)c1 | 12.5 to 25 µM

q: Can you look up the measured solubility of `O=S(=O)(NCCO)c1ccc(NC2CCCCC2)c(NCc2ccccc2)c1` for me?
a: 100 to 200 µM

q: Now try `Nc1cc(S(=O)(=O)N2CCOCC2)ccc1NC1CCCCC1` .
a: > 200 µM

q: Now try `O=S(=O)(c1ccc(NC2CCCCC2)c(NCc2ccccc2)c1)N1CCOCC1` .
a: 25 to 50 µM

q: Now try CCNS(=O)(=O)c1ccc(NC2C3CC4CC(C3)CC2C4)c(NCc2ccccc2)c1 (stereo not shown) .
a: 12.5 to 25 µM

q: Now try `CN1CCN(S(=O)(=O)c2ccc(NC3CCCCC3)c(NCc3ccccc3)c2)CC1` .
a: 25 to 50 µM
